ASSAY_SYSTEM: T1, human PVRIG on FlpinCHO-PVRIG cells (human, UniProt Q6DKI7 41-326)
T1 construct: whole, on cells
T1 sequence (looked up): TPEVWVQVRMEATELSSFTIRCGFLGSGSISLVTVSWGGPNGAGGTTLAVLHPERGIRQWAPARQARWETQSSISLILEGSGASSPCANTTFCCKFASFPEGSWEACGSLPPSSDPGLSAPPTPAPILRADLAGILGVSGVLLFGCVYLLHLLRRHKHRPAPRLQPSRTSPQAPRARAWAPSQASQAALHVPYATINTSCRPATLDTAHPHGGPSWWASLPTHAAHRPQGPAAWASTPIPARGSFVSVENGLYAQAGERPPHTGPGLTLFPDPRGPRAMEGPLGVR
ASSAY_PROTOCOL: FACS, FlpinCHO-PVRIG cells; AUC of MFI curve relative to SRF813-hIgG1
Label label 1 when % AUC to SRF813-hIgG1 is at or above 50%; anything below gets label 0.

BINDER	CLASS_NAME
PVRIG-A105 (Fc fusion, Alpaca VHH joined to human IgG1 Fc (VHH-hinge-CH2-CH3); not shown: human IgG1 hinge-CH2-CH3) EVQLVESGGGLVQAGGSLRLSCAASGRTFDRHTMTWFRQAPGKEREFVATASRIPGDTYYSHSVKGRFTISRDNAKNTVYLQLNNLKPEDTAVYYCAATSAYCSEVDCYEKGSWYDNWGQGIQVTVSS	label 1
PVRIG-A15 (Fc fusion, Alpaca VHH joined to human IgG1 Fc (VHH-hinge-CH2-CH3); not shown: human IgG1 hinge-CH2-CH3) QVQLVESGGGLVQAGGSLRLSCVASGRTFSANTMAWFRQAPGKEREFVAYTRWTDDNTDYASYADFVKGRFTAFRDNTRNTMYLQMNRLRPEDTAVYYCAAATTRGTYYSAGDYNSWGQGTQVTVSS	label 0
PVRIG-A30 (Fc fusion, Alpaca VHH joined to human IgG1 Fc (VHH-hinge-CH2-CH3); not shown: human IgG1 hinge-CH2-CH3) QVQLVESGGGLVQPGGSLRLSCAASGRTDSMNVMGWFRRAPGKEREFVARIKWNGDTTYTAYADFLKGRFTLYGAVARNRVYLQMNSLQPEDTAVYYCAAGEVSGSSYSPDYGMHYWGKGTLVTVSS	label 0
PVRIG-A75 (Fc fusion, Alpaca VHH joined to human IgG1 Fc (VHH-hinge-CH2-CH3); not shown: human IgG1 hinge-CH2-CH3) QLQLVESGGGLVQSGGSLRLSCAASGRTRSMYVMGWFRQAPGKEREFVGRIKWSGDTTYTSYADFVKGRFTLYGNQARNTVYLQMNSLKPEDTAVYSCAASKFPVSGVPEHYDYWGQGTQVTVSS	label 1

Query binder follows.
Threshold query (% AUC to SRF813-hIgG1 >= 50%) on PVRIG-A113 (Fc fusion, Alpaca VHH joined to human IgG1 Fc (VHH-hinge-CH2-CH3); not shown: human IgG1 hinge-CH2-CH3) QLQLVESGGGLVQSGGSLRLSCAASGRTRSMYVMGWFRQAPGKEREFVGRIKWSGDTTYTSYADFVKGRFTLYGNQARNTVYLQMNSLKPEDTAVYYCAALPSDYDYRAASYGVDYWGKGTLVTVSS label 1
